# ASSAYED TARGET: SWI/SNF-related matrix-associated actin-dependent regulator of chromatin subfamily A member 2 (Homo sapiens, UniProt P51531)
# Sequence (P51531 whole entry): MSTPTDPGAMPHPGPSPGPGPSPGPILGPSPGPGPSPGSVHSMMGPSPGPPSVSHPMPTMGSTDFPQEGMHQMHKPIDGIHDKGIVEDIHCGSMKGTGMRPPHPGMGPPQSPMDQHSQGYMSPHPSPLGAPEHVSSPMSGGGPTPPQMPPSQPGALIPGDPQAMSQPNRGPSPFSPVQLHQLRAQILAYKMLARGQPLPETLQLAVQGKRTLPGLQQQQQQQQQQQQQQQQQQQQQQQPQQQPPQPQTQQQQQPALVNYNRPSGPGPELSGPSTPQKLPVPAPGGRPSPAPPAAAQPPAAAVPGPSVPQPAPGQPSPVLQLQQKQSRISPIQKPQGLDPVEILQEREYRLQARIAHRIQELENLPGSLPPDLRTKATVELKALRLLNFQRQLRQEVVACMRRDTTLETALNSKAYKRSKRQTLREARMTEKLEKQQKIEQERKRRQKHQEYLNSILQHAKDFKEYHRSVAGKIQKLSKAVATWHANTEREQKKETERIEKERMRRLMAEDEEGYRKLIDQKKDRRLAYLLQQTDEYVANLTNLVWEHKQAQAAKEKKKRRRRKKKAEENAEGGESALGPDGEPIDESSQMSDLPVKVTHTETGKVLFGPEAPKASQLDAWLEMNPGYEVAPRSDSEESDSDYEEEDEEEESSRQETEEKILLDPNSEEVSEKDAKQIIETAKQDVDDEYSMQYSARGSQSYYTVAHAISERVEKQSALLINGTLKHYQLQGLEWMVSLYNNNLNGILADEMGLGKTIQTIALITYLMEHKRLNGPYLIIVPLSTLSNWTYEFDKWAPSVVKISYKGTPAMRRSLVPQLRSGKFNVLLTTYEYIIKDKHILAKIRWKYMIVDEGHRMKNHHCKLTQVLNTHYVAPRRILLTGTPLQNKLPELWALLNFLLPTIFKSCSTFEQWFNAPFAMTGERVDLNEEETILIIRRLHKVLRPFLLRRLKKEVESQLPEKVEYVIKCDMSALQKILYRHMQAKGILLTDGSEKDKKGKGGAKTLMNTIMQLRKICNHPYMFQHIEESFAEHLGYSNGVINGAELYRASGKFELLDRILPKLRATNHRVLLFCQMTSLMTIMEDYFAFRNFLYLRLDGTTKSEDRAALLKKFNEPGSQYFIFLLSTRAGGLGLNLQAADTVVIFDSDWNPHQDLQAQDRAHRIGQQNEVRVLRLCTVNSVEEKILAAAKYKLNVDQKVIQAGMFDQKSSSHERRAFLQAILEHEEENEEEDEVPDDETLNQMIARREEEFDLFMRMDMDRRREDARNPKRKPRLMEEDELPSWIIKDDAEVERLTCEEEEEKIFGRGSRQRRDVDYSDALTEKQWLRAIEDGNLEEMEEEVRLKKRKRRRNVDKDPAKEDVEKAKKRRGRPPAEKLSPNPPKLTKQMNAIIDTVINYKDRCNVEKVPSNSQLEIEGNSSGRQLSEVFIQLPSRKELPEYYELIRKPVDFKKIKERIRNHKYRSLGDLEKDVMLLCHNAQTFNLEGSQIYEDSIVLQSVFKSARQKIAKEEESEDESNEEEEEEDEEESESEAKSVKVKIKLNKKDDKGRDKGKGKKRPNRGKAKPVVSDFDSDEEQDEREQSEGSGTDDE
pIC50: −log10 of the molar value.
Reported values of pIC50 for individual entries

[
  {
    "CHEMICAL SMILES": "COc1cc(CNCc2ccccn2)cc(Cl)c1OCc1ccc(Cl)cc1Cl",
    "pIC50": 5.04
  },
  {
    "CHEMICAL SMILES": "COc1cc(CNCc2ccccn2)ccc1OCc1cccc(Cl)c1",
    "pIC50": 5.04
  },
  {
    "CHEMICAL SMILES": "COc1cc(CNCc2ccccn2)ccc1OCc1cccs1",
    "pIC50": 4.77
  },
  {
    "CHEMICAL SMILES": "COc1cc(CNCc2ccccn2)cc(Cl)c1OCc1ccc(Cl)cc1",
    "pIC50": 4.52
  },
  {
    "CHEMICAL SMILES": "COc1cc(CNCc2ccccn2)ccc1OCc1ccccc1F",
    "pIC50": 5.05
  }
]
